System: A549
Assay: NCI tumour cell line growth inhibition, 48 h
Active and inactive are the calls of the source. No stated cut-off is given here; in the data, active = GI50 up to about 1.1 µM and inactive = higher.
Pick from 1 (active), -1 (inactive) when you respond.

Worked set:
| Molecule | Group Label |
| --- | --- |
| Cn1nc(-c2ccccc2)c2c(-c3ccccc3)c3cc(Cl)ccc3nc21 | -1 |
| O=C1C2=C(C(c3ccccc3)=C1c1ccccc1)c1ccccc1C1(c3ccccc3)C2=C(O)C(c2ccccc2)=C1c1ccccc1 (stereo not given) | -1 |
| Cn1c(-c2ccccc2)cc(-c2ccsc2)c1-c1ccsc1 | -1 |
| O=C1c2c(Br)sc(Br)c2[C@@H](Cl)[C@H]1Cl | -1 |
| CCN(CC)Cc1ccc(Nc2c3ccccc3nc3ccccc23)cc1 | -1 |

Q: Hello, I am checking results. What call was entered for CCSc1nc(N2CCCC2)s[s+]1.[O-][Cl+3]([O-])([O-])[O-] ?
A: -1

Q: Hello, I am checking results. What call was entered for CC1=N/C(=C\c2ccc([N+](=O)[O-])cc2)C(=O)O1 ?
A: -1

Q: Hello, I am checking results. What call was entered for O=c1[nH]nc(Cc2ccccc2)n1/N=C/c1ccncc1 ?
A: -1

Q: Hello, I am checking results. What call was entered for O=C(Nc1ccccc1)N1C(c2ccccc2)=N[C@@H](c2ccccc2)[C@@H]1c1ccccc1 ?
A: -1

Q: Hello, I am checking results. What call was entered for N#CC(NNC(=O)c1ccccc1O)c1ccccc1 (stereo not given) ?
A: 1

---

System: MDA-MB-231
Assay: NCI tumour cell line growth inhibition, 48 h
Calls of active or inactive are those of the source. Rule as the data show it: active = GI50 up to about 1.1 µM and inactive = higher.
Quantity: GI50

A selection of reference data follows.
| Compound | Tested Target | Endpoint Value |
| --- | --- | --- |
| C=C1C[C@@H](O)[C@@H](Br)C(C)(C)[C@]12CCC(C)(Br)C(Cl)C2 (stereo not given in full) | MDA-MB-231 | > 50 µM (inactive) |
| N#Cc1c(N2CCN(c3ccc([N+](=O)[O-])cc3)CC2)[n+]([O-])c2ccccc2[n+]1[O-] | MDA-MB-231 | > 100 µM (inactive) |
| CCCCC1Cc2cc(OC)ccc2-c2nc3cc(OC)ccc3n21.CCCCC1Cc2cc(OC)ccc2-c2nc3ccc(OC)cc3n21 (stereo not given) | MDA-MB-231 | 13.1 µM (inactive) |
| COc1cc2cc(C(=O)N3CC(CCl)c4ccc([N+](=O)[O-])cc43)[nH]c2c(OC)c1OC (stereo not given) | MDA-MB-231 | > 100 µM (inactive) |
| CC(=O)OC1CCn2c1nc1c2C(=O)C=C(N2CC2)C1=O (stereo not given) | MDA-MB-231 | 1.91 µM (inactive) |

Q: Please list GI50 recorded for the compound Nc1nc(Cl)cc(NCC2(CO)CCCC2)n1
A: > 100 µM (inactive)

Q: Please list GI50 recorded for the compound CCOC(OCC)C(CC)[Se]c1ccccc1[N+](=O)[O-] (stereo not given)
A: 9.2 µM (inactive)

---

Test system: RXF 393
Experiment: NCI tumour cell line growth inhibition, 48 h
The source made the active and inactive calls. Cut-off read from the data, not from the text of the source: active = GI50 up to about 1.1 µM and inactive = higher.
Pick from active, inactive when you respond.

Worked set:
| Molecule | Group Label |
| --- | --- |
| O=C1[C@H]2ON(c3ccccc3)C(c3cccc([N+](=O)[O-])c3)[C@H]2C(=O)N1c1ccc(Cc2ccc(N3C(=O)[C@@H]4ON(c5ccccc5)C(c5cccc([N+](=O)[O-])c5)[C@@H]4C3=O)cc2)cc1 (some centres undefined) | inactive |
| COC(=O)C(CSSC[C@H](N/C(C)=C/C(C)=O)C(=O)OC)N/C(C)=C/C(C)=O (some centres undefined) | inactive |
| C1=c2ccccc2=C2C(=C(c3ccccc3)C(c3ccccc3)=NN2c2ccccc2)S1 | inactive |
| CCCCCCCCCCCc1cc(=O)c2c(O)cccc2o1 | inactive |

Turning now to a further molecule:
Q: Hello, I am checking results. What call was entered for Cc1ccc2c3c1O[C@H]1c4[nH]c5ccccc5c4C[C@@]4(O)[C@@H](C2)N(C)CC[C@]314 ?
A: inactive

---

Test system: SK-MEL-28
Test: NCI tumour cell line growth inhibition, 48 h
Calls of active or inactive are those of the source. Rule as the data show it: active = GI50 up to about 1.1 µM and inactive = higher.
Quantity: GI50

A selection of reference data follows.
| Compound | Tested Target | Quantity | Endpoint Value |
| --- | --- | --- | --- |
| CCOC(=O)C1=C(c2ccccc2)N(C(C)=O)Cc2ccccc21 | SK-MEL-28 | GI50 | 16.8 µM (inactive) |
| O=C1NC2OCC(O)C(O)C2O1 (configuration not stated) | SK-MEL-28 | GI50 | > 100 µM (inactive) |
| COc1ccc(N2C(=O)CC(Cl)C2=O)cc1 (configuration not stated) | SK-MEL-28 | GI50 | 16.6 µM (inactive) |
| C(=C\N1CCCCC1)/c1nnnn1-c1ccccc1 | SK-MEL-28 | GI50 | 44.7 µM (inactive) |
| C#CCOC(=O)C(N)CCSC (configuration not stated) | SK-MEL-28 | GI50 | > 100 µM (inactive) |
| CCOC(=O)COc1ccc(/C=C/C(=O)c2ccc(OC)cc2)cc1 | SK-MEL-28 | GI50 | 19.3 µM (inactive) |

Then this compound:
Q: # assay system SK-MEL-28: give GI50 of CCN(CC)Cc1ccc(Nc2c3ccccc3nc3ccccc23)cc1
A: 1.61 µM (inactive)

---

Test system: SNB-19
Experiment: NCI tumour cell line growth inhibition, 48 h
Active and inactive are the calls of the source. Cut-off read from the data, not from the text of the source: active = GI50 up to about 1.1 µM and inactive = higher.
GI50: recorded values

A selection of reference data follows.
| Molecule | GI50 |
| --- | --- |
| CCOC(=O)/C(=C\NCC(OCC)OCC)c1nc2ccccc2[nH]1 | 67.3 µM (inactive) |
| O=C1CCC(c2nc3ccccc3o2)C(=O)N1 (centres undefined) | > 100 µM (inactive) |
| CCOC(=O)C(Cc1ccccc1)NC(=O)c1nc[nH]c1/N=N/N(C)C (centres undefined) | > 100 µM (inactive) |
| Cc1c(C)c(C)c(CSC(=N)N)c(C)c1C | 14.6 µM (inactive) |
| N/C(=N\NC(=O)c1nc2ccccc2s1)c1ccccn1 | 16 µM (inactive) |

Q: # assay system SNB-19: give GI50 of N#C[BH2-][n+]1cn(C2CC(O)C(COP(=O)(O)OC3CC(n4cnc5c(=O)[nH]c(N)nc54)OC3CO)O2)c2nc(N)[nH]c(=O)c21 (centres undefined)
A: > 100 µM (inactive)

Q: # assay system SNB-19: give GI50 of Cc1nc2c(=S)[nH]ncc2[nH]1
A: > 100 µM (inactive)

Q: # assay system SNB-19: give GI50 of Cc1ccc(/C=N/Nc2cnccn2)s1
A: > 100 µM (inactive)

Q: # assay system SNB-19: give GI50 of O=C1NC2OCC(O)C(O)C2O1 (centres undefined)
A: > 100 µM (inactive)

---

System: CCRF-CEM
Experiment: NCI tumour cell line growth inhibition, 48 h
The source made the active and inactive calls. Cut-off read from the data, not from the text of the source: active = GI50 up to about 1.1 µM and inactive = higher.
Pick from YES for active, NO for inactive when you respond.

| Compound | Group Label |
| --- | --- |
| C=CCOC(C)n1c(C)c(Br)c(=O)[nH]c1=O (configuration not stated) | NO |
| O=C(O)C(=Cc1ccnc2ccccc12)C(=O)O | NO |
| O=[N+]([O-])C(=C1NCCN1)/C(Cl)=C(/Cl)N1CCOCC1 | NO |
| Cc1cc(C)cc(Nc2nnc3n2S(=O)(=O)c2cc(C)c(Cl)cc2S3)c1 | YES |
| Nc1ccc(C(=O)O)cc1.Nc1nc(N)c2nc[nH]c2n1 | NO |

Q: Hello, I am checking results. What call was entered for CC(C)(C)n1c(=O)n2n(c1=O)Cc1cccc3cccc(c13)C2 ?
A: NO

Q: Hello, I am checking results. What call was entered for CN(C)CCNC(=O)c1cccc2nc3cccc(F)c3nc12 ?
A: YES

Q: Hello, I am checking results. What call was entered for CC(=O)OC1CCn2c1nc1c2C(=O)C=C(N2CC2)C1=O (configuration not stated) ?
A: YES

Q: Hello, I am checking results. What call was entered for Nc1nc(SCC(=O)c2ccccc2)c2[nH]cnc2n1 ?
A: NO

Q: Hello, I am checking results. What call was entered for CCCN(CCC)c1c([N+](=O)[O-])cc(C(=O)N(CC)CC)cc1[N+](=O)[O-] ?
A: NO

Q: Hello, I am checking results. What call was entered for O=C(/C=C/c1ccccc1)NC1C=Nc2ccc(Cl)cc2NC1=O (configuration not stated) ?
A: NO

Q: Hello, I am checking results. What call was entered for CC(C)OP(=O)(OC(C)C)c1ncn(-c2ccc([N+](=O)[O-])cc2)n1 ?
A: NO

Q: Hello, I am checking results. What call was entered for COC(=O)C12Oc3ccc(-c4ccc5c(c4O)C(O)=C4C(=O)CC(C)C(O)C4(C(=O)OC)O5)c(O)c3C(O)=C1C(=O)CC(C)C2O (configuration not stated) ?
A: YES

Q: Hello, I am checking results. What call was entered for NCc1cc(O)c(O)c(O)c1 ?
A: NO

Q: Hello, I am checking results. What call was entered for Cc1ccc(S(=O)(=O)ON2C(=O)c3c(N)c(C#N)c(-c4ccccc4)c(-c4ccccc4)c3C2=O)cc1 ?
A: NO

Q: Hello, I am checking results. What call was entered for CC1(CC(=O)O)OC2CCCCCC2O1.NCc1ccccc1 (configuration not stated) ?
A: NO
